For each of the compounds below, state its viability, T/C.
test system: 422866-222-R5-J1-PDC complex spheroids viability; test: Anticancer human tumor 422866-222-R5-J1-PDC patient-derived pancreatic adenocarcinoma cell line growth inhibition [RAS]; details: second compound 1 µM; first compound 0.03 µM; active compounds read low;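 note: spheroids exposed to compounds for 7 days; 100% = DMSO vehicle control viability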
Give the value in % but do not write % after it.

**Q:** Given CC1(C)CCC(Nc2ncc(C(F)(F)F)c(-c3c[nH]c4c(P(C)(C)=O)c(C#N)ccc34)n2)CN1 (centres undefined) + C#Cc1c(F)ccc2cc(O)cc(-c3ncc4c(N5CC6CCC(C5)N6)nc(OCC56CCCN5CC(F)C6)nc4c3F)c12 , state its recorded viability, T/C.
**A:** 42.7

**Q:** Given CCc1c2c(nc3ccc(O)cc13)-c1cc3c(c(=O)n1C2)COC(=O)[C@]3(O)CC + C#Cc1c(F)ccc2cc(O)cc(-c3ncc4c(N5CC6CCC(C5)N6)nc(OCC56CCCN5CC(F)C6)nc4c3F)c12 , state its recorded viability, T/C.
**A:** 38.2

**Q:** Given CC1(C)CCC(Nc2ncc(C(F)(F)F)c(-c3c[nH]c4c(P(C)(C)=O)c(C#N)ccc34)n2)CN1 (centres undefined) + C=CC(=O)N1CCN(c2nc(OCC3CCCN3C)nc3c(F)c(-c4nc(N)cc(C)c4C(F)(F)F)c(Cl)cc23)C(C)C1 , state its recorded viability, T/C.
**A:** 24.2

**Q:** Given CCc1c2c(nc3ccc(O)cc13)-c1cc3c(c(=O)n1C2)COC(=O)[C@]3(O)CC + C=CC(=O)N1CCN(c2nc(OCC3CCCN3C)nc3c(F)c(-c4nc(N)cc(C)c4C(F)(F)F)c(Cl)cc23)C(C)C1 , state its recorded viability, T/C.
**A:** 14
